Test system: IRF3
Test: IRF3 activation assay in THP-1 Dual Cells
Format: cell-based
Conditions: Homo sapiens, THP1-Dual, 24 hours incubation, QUANTI-Blue readout
pEC50: −log10 of the molar value.
testReadout: pEC50

Check out these entries, answers already filled in.
- compound: "CCn1nc(C)cc1C(=O)Nc1nc2cc(C(N)=O)c3ccoc3c2n1C/C=C/Cn1c2nc(-c3cc(C)nn3CC)ncc2c2cc(C(N)=O)cc(OCCCO)c21 [Example 3]"
  testValue: "> 7.00"
- compound: "CCn1nc(C)cc1C(=O)Nc1nc2cc(C(N)=O)c3ccoc3c2n1C/C=C/Cn1c2nc(-c3cc(C)nn3CC)ncc2c2cc(C(N)=O)cc(OCCCOC)c21 [Example 2]"
  testValue: "> 7.00"

Let us examine a further case.
Ask: Give a short answer stating reported pEC50 for CCn1nc(C)cc1C(=O)Nc1nc2cc(C(N)=O)c3ccoc3c2n1C/C=C/Cn1c2nc(-c3cc(C)nn3CC)ncc2c2cc(C(N)=O)cc(OC)c21 [Example 1] .
Reply: > 7.00
